# merged literature set: pIC50 with Polyunsaturated fatty acid 5-lipoxygenase (Rattus norvegicus)
# Sequence (P12527 whole entry): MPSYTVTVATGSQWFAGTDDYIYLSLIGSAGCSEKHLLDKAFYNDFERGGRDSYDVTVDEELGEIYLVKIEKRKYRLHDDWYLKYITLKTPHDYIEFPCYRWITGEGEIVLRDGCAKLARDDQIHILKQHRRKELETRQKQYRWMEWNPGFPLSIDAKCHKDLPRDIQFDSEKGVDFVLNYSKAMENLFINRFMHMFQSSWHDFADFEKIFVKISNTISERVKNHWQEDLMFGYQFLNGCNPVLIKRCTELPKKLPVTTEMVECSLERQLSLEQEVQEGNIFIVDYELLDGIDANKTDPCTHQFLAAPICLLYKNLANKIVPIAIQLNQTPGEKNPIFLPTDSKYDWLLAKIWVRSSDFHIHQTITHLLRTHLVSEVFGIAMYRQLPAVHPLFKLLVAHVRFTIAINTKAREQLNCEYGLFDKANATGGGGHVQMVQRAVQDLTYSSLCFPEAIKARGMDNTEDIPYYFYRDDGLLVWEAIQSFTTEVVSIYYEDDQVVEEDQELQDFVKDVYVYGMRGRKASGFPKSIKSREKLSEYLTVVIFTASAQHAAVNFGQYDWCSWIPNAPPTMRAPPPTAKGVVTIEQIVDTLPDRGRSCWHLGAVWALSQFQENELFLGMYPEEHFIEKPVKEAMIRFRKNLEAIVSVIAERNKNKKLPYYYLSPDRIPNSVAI
pIC50: −log10 of the molar value.
measured_parameter: pIC50

Worked set:
Cc1c(O)cc2c([nH]c3c(O)ccc(CO)c32)c1C1OC1(C)CCC(C)C (racemic)
5.62
CCC/C=C\Cc1ccccc1C#CCCC1OC(O)=C(O)C1=O (stereo not drawn)
6.40
NC(=O)N(O)C1CCCc2c(Oc3ccccc3)cccc21 (stereo not drawn)
6.08
O=C1C(O)=C(O)OC1CCC#Cc1ccccc1CSc1ccccc1 (stereo not drawn)
6.52
CC(=O)OCCCCCC(C1=C(C)C(=O)C(C)=C(C)C1=O)c1cccnc1 (stereo not drawn)
7.06
NC(=O)N(O)C1CCCc2cc(OCc3ccc(Cl)cc3)ccc21 (stereo not drawn)
5.66

(A) CCCCC/C=C\C/C=C\C/C=C\C=C\C(CCCO)CCCC(=O)O (stereo not drawn)
(B) CCCCC/C=C\C/C=C\C/C=C\C=C\C(=O)CCCC(=O)O
// compare: A vs B , metric pIC50, want the smaller Identify your selection by its label. A
(A: 4.01, B: 4.74)
